Attribution: BigSolDB 2.1

- condition description: in isopropanol, 323.15 K

structure as smiles: Nc1ccc(C(=O)[O-])cc1.[K+]
solubility (mole fraction): 0.00052

====

- condition description: in n-propanol, 293.15 K
endpoint: solubility (mole fraction)

structure as smiles: Nc1ccc(C(=O)[O-])cc1.[K+]
result: 0.000874

====

- condition description: in ethylene glycol, 303.15 K

structure as smiles: Nc1ccc(C(=O)[O-])cc1.[K+]
solubility (mole fraction): 0.127

====

- condition description: in ethylene glycol, 323.15 K

structure as smiles: Nc1ccc(C(=O)[O-])cc1.[K+]
solubility (mole fraction): 0.156

====

- condition description: in water, 318.15 K
endpoint: solubility (mole fraction)

structure as smiles: Nc1ccc(C(=O)[O-])cc1.[K+]
result number: 0.161

====

- condition description: in ethylene glycol, 293.15 K

structure as smiles: Nc1ccc(C(=O)[O-])cc1.[K+]
solubility (mole fraction): 0.115

====

- condition description: in DMF, 293.15 K

structure as smiles: Nc1ccc(C(=O)[O-])cc1.[K+]
solubility (mole fraction): 0.00146

====

- condition description: in ethylene glycol, 313.15 K

structure as smiles: Nc1ccc(C(=O)[O-])cc1.[K+]
solubility (mole fraction): 0.145

====

- condition description: in formamide, 323.15 K

structure as smiles: Nc1ccc(C(=O)[O-])cc1.[K+]
solubility (mole fraction): 0.119

====

- condition description: in formamide, 283.15 K

structure as smiles: Nc1ccc(C(=O)[O-])cc1.[K+]
solubility (mole fraction): 0.0794

====

- condition description: in n-propanol, 303.15 K

structure as smiles: Nc1ccc(C(=O)[O-])cc1.[K+]
solubility (mole fraction): 0.000884

====

- condition description: in DMF, 333.15 K
endpoint: solubility (mole fraction)

structure as smiles: Nc1ccc(C(=O)[O-])cc1.[K+]
endpoint: solubility (mole fraction)
result number: 0.00161

====

- condition description: in formamide, 333.15 K
endpoint: solubility (mole fraction)

structure as smiles: Nc1ccc(C(=O)[O-])cc1.[K+]
result: 0.125

====

- condition description: in ethyl acetate, 303.15 K

structure as smiles: Nc1ccc(C(=O)[O-])cc1.[K+]
solubility (mole fraction): 0.000211

====

- condition description: in ethyl acetate, 283.15 K

structure as smiles: Nc1ccc(C(=O)[O-])cc1.[K+]
solubility (mole fraction): 0.000198

====

- condition description: in n-propanol, 323.15 K

structure as smiles: Nc1ccc(C(=O)[O-])cc1.[K+]
solubility (mole fraction): 0.000952

====

- condition description: in ethanol, 313.15 K
endpoint: solubility (mole fraction)

structure as smiles: Nc1ccc(C(=O)[O-])cc1.[K+]
endpoint: solubility (mole fraction)
result number: 0.00244

====

- condition description: in DMF, 283.15 K
endpoint: solubility (mole fraction)

structure as smiles: Nc1ccc(C(=O)[O-])cc1.[K+]
result: 0.00143
